- System: BT-549 breast
- Experimental protocol: NCI tumour cell line growth inhibition, 48 h
Parameter measured: TGI

Examples with their reported TGI follow.
# Compound, TGI
data = [
    ("O=C(O)c1cc(Sc2ccc([N+](=O)[O-])c(C(=O)O)c2)ccc1[N+](=O)[O-]", "> 100 µM"),
    ("CC1OC(OC2CC(O)(C(=O)CO)Cc3c(O)c4c(c(O)c32)C(=O)c2ccccc2C4=O)CC(N)C1O (centres undefined)", "4.03 µM"),
    ("CC1(C)OC(=S)N(c2ccccc2)C12C=Cc1cc3ccccc3cc1O2 (centres undefined)", "> 100 µM"),
    ("CCCCCCCCCCCCP(=O)(O)OCC(N)C(=O)O (centres undefined)", "> 100 µM"),
    ("CCN1CCN(C(=O)[C@]23CCC(C)(C)C[C@@H]2C2=CC[C@@H]4[C@@]5(C)C/C(=C/c6cccnc6)C(=O)C(C)(C)[C@@H]5CC[C@@]4(C)[C@]2(C)CC3)CC1", "2.88 µM"),
    ("CC1=CC2C(C(C)C)CC1C1C(=O)OC(=O)C21 (centres undefined)", "> 100 µM"),
    ("CCOC(=O)c1cc(-c2ccc(Cl)cc2)c([N+](=O)[O-])n1C", "> 10 µM"),
    ("CCc1n[nH]c(=O)n1NC(=O)/C=C\\C(=O)O", "> 100 µM"),
]

Request: Fill blank: measured TGI of the compound "C=C(CN1CCN(c2cccc(F)c2)CC1)c1ccc(C(=O)Nc2ccccc2N)cc1" is ____.
Response: 12.6 µM
